src = ChEMBL document CHEMBL1201862

Experimental Target: UniProt:P00734
Test Summary: Thrombin 1536 HTS Dose Response Confirmation. [Related pubchem assays: 1046 (Thrombin 1536 HTS; hits were confirmed in this assay)]
Type: functional
Activity calls are given as the source filed them. Cut-off read from the data, not from the text of the source: actives have a measured IC50 and inactives only a lower limit.
Measured Property: IC50

q: Find IC50 (UniProt:P00734) for the entry "COC(=O)c1nnc(NC(=O)c2ccc(Br)cc2)[nH]1"
a: 0.0137 µM (active)

q: Find IC50 (UniProt:P00734) for the entry Cc1ccc(NCC(O)C(O)C(O)CO)c(N=Nc2ccccc2)c1C (stereo not given)
a: > 50 µM (not active)

q: Find IC50 (UniProt:P00734) for the entry "CSc1nc(-c2ccc(Cl)cc2)nn1C(=O)c1ccco1"
a: 2.31 µM (active)

q: Find IC50 (UniProt:P00734) for the entry "CCOC(=O)c1c(-c2ccc(C)cc2)csc1NC(=O)CCN1CCOCC1"
a: > 50 µM (not active)

q: Find IC50 (UniProt:P00734) for the entry CCOc1ccc(OCC)c(NC(=O)C2CCCN(S(=O)(=O)c3c[nH]cn3)C2)c1 (stereo not given)
a: > 50 µM (not active)
